# System: A549
# Test Description: Cytotoxicity against human A549 cells assessed as growth inhibition after 48 hrs by MTT assay
# Assay type: functional, cell-based
# Condition Details: A549, 48 h
Property Label: pIC50
Remember, pIC50 is on a log scale: it is -log10 of the molar concentration.

Could you tell me which pIC50 is on file for `COc1ccc(-c2nnnn2-c2cc(OC)c(OC)c(OC)c2)c(O)c1N` ? 6.28

# get_value(readout='pIC50', item= `COc1ccc(-c2nnnn2-c2cc(OC)c(OC)c(OC)c2)c(O)c1` ) 5.19

Which pIC50 is listed for `COc1ccc(-c2nnnn2-c2cc(OC)c(OC)c(OC)c2O)c(O)c1` ? 4.30

I have this molecule here, `COc1ccc(/C=C\c2cc(OC)c(OC)c(OC)c2)cc1O` , and I need its recorded pIC50. 6.55

Consider the molecule shown here: `COc1ccc(-c2nnnn2-c2cc(OC)c(OC)c(OC)c2)c(O)c1O` What is its recorded pIC50? 5.17
